Assay: Cytotoxicity against human MT4 cells after 4 days by MTT assay
Format: cell-based
So basically: is CC50 at 96 h under 200 µM? Then true (1). Not under? Then false (0).

1) Nc1ccc2oc(-c3cccc(C(F)(F)F)c3)c(O)c(=O)c2c1: true (1)
2) COc1ccc(-c2oc3ccc(NC(C)=O)cc3c(=O)c2OC)cc1: false (0)
3) CC(=O)Nc1ccc2oc(-c3cccc(F)c3)c(O)c(=O)c2c1: true (1)
4) Nc1ccc2oc(-c3ccccc3)cc(=O)c2c1: false (0)
5) Nc1ccc2oc(-c3cccc(F)c3)c(O)c(=O)c2c1: true (1)
6) COc1ccc(/C=C/C(=O)c2cc(NC(C)=O)ccc2O)cc1: true (1)
7) Nc1ccc2oc(-c3ccccc3F)cc(=O)c2c1: false (0)
8) COc1ccccc1-c1oc2ccc(N)cc2c(=O)c1O: false (0)
9) Nc1ccc2oc(-c3ccccc3)c(O)c(=O)c2c1: false (0)
10) COc1c(-c2ccccc2F)oc2ccc(NC(C)=O)cc2c1=O: true (1)
11) COc1cccc(-c2oc3ccc(N)cc3c(=O)c2OC)c1: false (0)
12) CC(=O)Nc1ccc2oc(-c3cccc(F)c3)cc(=O)c2c1: false (0)
13) COc1cccc(/C=C/C(=O)c2cc(NC(C)=O)ccc2O)c1: true (1)
14) CC(=O)Nc1ccc2oc(-c3cccc(C(F)(F)F)c3)c(O)c(=O)c2c1: true (1)
15) COc1c(-c2cccc(C(F)(F)F)c2)oc2ccc(N)cc2c1=O: true (1)
16) COc1cccc(-c2oc3ccc(N)cc3c(=O)c2O)c1: true (1)
17) COc1cccc(-c2cc(=O)c3cc(N)ccc3o2)c1: false (0)
18) CC(=O)Nc1ccc2oc(-c3ccccc3F)c(O)c(=O)c2c1: true (1)
19) COc1c(-c2ccc(F)cc2)oc2ccc(NC(C)=O)cc2c1=O: false (0)
20) COc1ccc(-c2oc3ccc(N)cc3c(=O)c2O)cc1: false (0)
21) COc1c(-c2ccc(C(F)(F)F)cc2)oc2ccc(N)cc2c1=O: false (0)
22) COc1ccccc1-c1cc(=O)c2cc(NC(C)=O)ccc2o1: false (0)
23) COc1cccc(-c2oc3ccc(NC(C)=O)cc3c(=O)c2O)c1: true (1)
24) CC(=O)Nc1ccc2oc(-c3ccc(F)cc3)c(O)c(=O)c2c1: true (1)
25) Cc1cn([C@H]2C[C@H](N=[N+]=[N-])[C@@H](CO)O2)c(=O)[nH]c1=O: true (1)
26) Nc1ccc2oc(-c3ccc(C(F)(F)F)cc3)cc(=O)c2c1: false (0)
27) COc1ccccc1-c1oc2ccc(N)cc2c(=O)c1OC: false (0)
28) CC(=O)Nc1ccc2oc(-c3ccccc3)c(O)c(=O)c2c1: true (1)

---

Tested on: Plasmodium falciparum
Experiment: Antiplasmodial activity against chloroquine-resistant Plasmodium falciparum W2 infected in human A+ erythrocytes assessed as inhibition of parasite proliferation after 48 hrs
Format: functional, organism-based
Conditions: W2, 48 h
Readout Kind: IC50

1. COc1ccc(-c2oc3ccc(NC(C)=O)cc3c(=O)c2O)cc1: > 9 µM
2. COc1c(-c2ccc(C(F)(F)F)cc2)oc2ccc(NC(C)=O)cc2c1=O: 39 µM
3. CC(=O)Nc1ccc2oc(-c3ccc(F)cc3)cc(=O)c2c1: > 22 µM
4. CC(=O)Nc1ccc2oc(-c3ccccc3F)c(O)c(=O)c2c1: > 47 µM
